molecular target: TYK2 (Homo sapiens (Human), UniProt P29597); experiment: JAK Caliper Enzyme Assay at 1 mM ATP, TYK2; format: biochemical; conditions: JAK Caliper enzyme assay
Sequence (P29597 897-1176): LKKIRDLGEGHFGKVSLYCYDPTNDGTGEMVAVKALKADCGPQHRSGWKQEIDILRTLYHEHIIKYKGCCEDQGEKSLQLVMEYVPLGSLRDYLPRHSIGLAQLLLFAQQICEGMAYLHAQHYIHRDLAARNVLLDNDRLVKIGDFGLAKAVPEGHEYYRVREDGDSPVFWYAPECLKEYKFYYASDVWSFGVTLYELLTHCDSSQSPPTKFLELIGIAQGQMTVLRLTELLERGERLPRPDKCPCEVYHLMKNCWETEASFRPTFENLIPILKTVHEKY
As shown below, each of these compounds has a reported pIC50 value.
// pIC50: -log10(molar conc.)

Consider the following illustrative entries.
compound: Cc1cc(-c2cc(-c3cnn(C4(CC#N)CN(S(C)(=O)=O)C4)n3)c3cccnc3c2)cnc1N
pIC50: 5.75

compound: CC(=O)Nc1cccc(-c2cc(-c3cnn(C4(CC#N)CC(C#N)C4)n3)c3cccnc3c2)n1 (stereo not shown)
pIC50: 7.85

compound: N#CC[C@]1(n2ncc(-c3cc(-c4ccc(-c5nnn[nH]5)cc4)cc4ncccc34)n2)C[C@@H](C#N)C1
pIC50: 7.77

Let us move to another entry and its pIC50.
# query: pIC50 of entry N#CCC1(n2ncc(-c3cc(-c4ncccn4)cc4ncccc34)n2)CC(C#N)C1 (stereo not shown)
5.89

---

molecular target: JAK1 (Homo sapiens (Human), UniProt P23458); experiment: JAK Caliper Enzyme Assay at 1 mM ATP, JAK1; format: biochemical
Sequence (P23458 875-1153): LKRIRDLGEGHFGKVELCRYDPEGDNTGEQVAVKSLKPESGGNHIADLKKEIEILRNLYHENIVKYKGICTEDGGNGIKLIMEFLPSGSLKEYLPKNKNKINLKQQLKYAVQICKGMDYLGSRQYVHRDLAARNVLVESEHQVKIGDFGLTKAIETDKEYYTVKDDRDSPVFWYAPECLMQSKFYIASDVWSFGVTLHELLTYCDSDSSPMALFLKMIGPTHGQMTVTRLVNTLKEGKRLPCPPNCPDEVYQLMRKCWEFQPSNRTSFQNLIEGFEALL
pIC50: −log10 of the molar value.
Respond with met for pIC50 values of 6 and above, not met for values below.

Study these solved cases before continuing.
compound: Cc1cn([C@]2(CC#N)C[C@@H](C#N)C2)nc1-c1nc(-c2cc(N)n(C)n2)cc2ncccc12
labelClass: not met
--
compound: CO[C@H]1C[C@@](CC#N)(n2ccc(-c3nc(-c4cc(N)[nH]n4)cc4ncccc34)n2)C1
labelClass: met
--
compound: C[C@]1(C#N)C[C@@](CC#N)(n2ccc(-c3nc(-c4cn[nH]c4)cc4ncccc34)n2)C1
labelClass: met

Record `CS(=O)(=O)N1CC(CC#N)(n2ccc(-c3nc(-c4c[nH]c5nccc-5c4)cc4ncccc34)n2)C1` ; criterion: pIC50 no lower than 6. Met?
not met

Record `CS(=O)(=O)N1CC(CC#N)(n2ccc(-c3nc(-c4cccc(O)n4)cc4ncccc34)n2)C1` ; criterion: pIC50 no lower than 6. Met?
not met

Record `COc1ncc(-c2cc3ncccc3c(-c3ccn(C4(CC#N)CN(S(C)(=O)=O)C4)n3)n2)cn1` ; criterion: pIC50 no lower than 6. Met?
not met

Record `N#CCC1(n2ncc(-c3cc(-c4ccn[nH]4)cc4ncccc34)n2)CN(S(=O)(=O)C2COC2)C1` ; criterion: pIC50 no lower than 6. Met?
met

Record `CCN1CC(CC#N)(n2ccc(-c3nc(-c4ccc(O)nc4)cc4ncccc34)n2)C1` ; criterion: pIC50 no lower than 6. Met?
not met

Record `N#CC[C@]1(n2cc(-c3nc(-c4cnn(CCO)c4)cc4ncccc34)cn2)C[C@H](C#N)C1` ; criterion: pIC50 no lower than 6. Met?
met

Record `CS(=O)(=O)N1CC(CC#N)(n2ccc(-c3nc(-c4ccc(O)cc4)cc4ncccc34)n2)C1` ; criterion: pIC50 no lower than 6. Met?
met

Record `Cn1cc(-c2cc(-c3cnn([C@]4(CC#N)C[C@@H](C#N)C4)n3)c3cccnc3c2)nn1` ; criterion: pIC50 no lower than 6. Met?
not met

Record `CNS(=O)(=O)N1CC(CC#N)(n2ccc(-c3nc(-c4cnn(C)c4)cc4ncccc34)n2)C1` ; criterion: pIC50 no lower than 6. Met?
not met

---

target: TYK2 (Homo sapiens (Human), UniProt P29597); assay: JAK Caliper Enzyme Assay at 1 mM ATP, TYK2; type: biochemical
As shown below, each of these compounds has a reported pIC50 value.
// pIC50: -log10(molar conc.)

chemicalString: CS(=O)(=O)N1CC(CC#N)(n2ccc(-c3nc(-c4ccccc4F)cc4ncccc34)n2)C1
assayEndpoint: pIC50
observedMeasurement: 6.59

# query: pIC50 of entry `Cn1nncc1-c1cc(-c2cnn([C@]3(CC#N)C[C@H](C#N)C3)n2)c2cccnc2c1`
5.61

# query: pIC50 of entry `CS(=O)(=O)N1CC(CC#N)(n2ccc(-c3nc(-c4cnn(CC5COC5)c4)cc4ncccc34)n2)C1`
7.66

# query: pIC50 of entry `Cn1cc(-c2cc(-c3cnn([C@]4(CC#N)C[C@@H](C#N)C4)n3)c3cccnc3c2)nn1`
7.44

---

target: TYK2 (Homo sapiens (Human), UniProt P29597); test: JAK Caliper Enzyme Assay at 1 mM ATP, TYK2; type: biochemical
pIC50: −log10 of the molar value.
Respond with yes for pIC50 values of 7 and above, no for values below.

Study these solved cases before continuing.
compound: CS(=O)(=O)N1CC(CC#N)(n2ccc(-c3nc(-c4cnc5cn[nH]c5c4)cc4ncccc34)n2)C1
labelClass: yes
--
compound: CC(=O)N(C)[C@H]1C[C@](CC#N)(n2ccc(-c3nc(-c4cc[nH]n4)cc4ncccc34)n2)C1
labelClass: no
--
compound: CN(C)CCn1cc(-c2cc3ncccc3c(-c3ccn([C@]4(CC#N)C[C@H](C#N)C4)n3)n2)cn1
labelClass: yes
--
compound: N#CC[C@]1(n2ccc(-c3nc(-c4cnn(CCO)c4)cc4ncccc34)n2)C[C@H](C#N)C1
labelClass: yes
--
compound: Cn1cc(-c2cc(-c3cnn(C4(CC#N)CN(CC#N)C4)c3)c3cccnc3c2)cn1
labelClass: yes

Record `Cn1nc(-c2cc(-c3cnn([C@]4(CC#N)C[C@@H](C#N)C4)n3)c3cccnc3c2)cc1CO` ; criterion: pIC50 no lower than 7. Met?
yes

Record `Cn1nc(CO)cc1-c1cc2ncccc2c(-c2ccn([C@]3(CC#N)C[C@H](C#N)C3)n2)n1` ; criterion: pIC50 no lower than 7. Met?
yes

Record N#CCC1(n2ncc(-c3cc(-c4ccccn4)cc4ncccc34)n2)CC(C#N)C1 (stereo not drawn) ; criterion: pIC50 no lower than 7. Met?
yes

Record `CS(=O)(=O)N1CC(CC#N)(n2ncc(-c3cc(-c4cn[nH]c4)cc4ncccc34)n2)C1` ; criterion: pIC50 no lower than 7. Met?
yes

Record `N#CCC1(n2ncc(-c3cc(-c4cc[nH]n4)cc4ncccc34)n2)CN(S(=O)(=O)C2CC2)C1` ; criterion: pIC50 no lower than 7. Met?
yes

Record N#CCC1(n2ccc(-c3nc(-c4ccn[nH]4)cc4ncccc34)n2)CC(C(N)=O)C1 (stereo not drawn) ; criterion: pIC50 no lower than 7. Met?
no

Record `N#CC[C@]1(n2ccc(-c3nc(-c4cccc(CO)n4)cc4ncccc34)n2)C[C@@H](C#N)C1` ; criterion: pIC50 no lower than 7. Met?
no

---

target: JAK1 (Homo sapiens (Human)); test: JAK Caliper Enzyme Assay at 1 mM ATP, JAK1; format: biochemical; conditions: JAK Caliper enzyme assay
As shown below, each of these compounds has a reported IC50 value.
Kindly answer with a numeric value in µM, unit omitted.

compound: Cn1cc(-c2cc(-c3cnn([C@]4(CC#N)C[C@H](C#N)C4)n3)n3ccnc3c2)cn1
unitsSymbol: µM
IC50: 6.47

# query: IC50 of entry `N#CC[C@]1(n2ncc(-c3cc(-c4cnc5c(N)nccn45)cc4ncccc34)n2)C[C@@H](C#N)C1`
5.38

# query: IC50 of entry CS(=O)(=O)Nc1ccc(-c2cc(-c3cnn(C4(CC#N)CC(C#N)C4)n3)c3cccnc3c2)nc1 (stereo not drawn) [Example 375]
0.452

# query: IC50 of entry `N#CC[C@]1(n2cc(-c3cc(-c4cc[nH]n4)cc4nccn34)cn2)C[C@@H](C#N)C1`
0.912

---

As shown below, each of these compounds has a reported pIC50 value.
biological target: UniProt P52333; experiment: JAK Caliper Enzyme Assay at 1 mM ATP, JAK3; type: biochemical; settings: JAK Caliper enzyme assay
Sequence (P52333 822-1111): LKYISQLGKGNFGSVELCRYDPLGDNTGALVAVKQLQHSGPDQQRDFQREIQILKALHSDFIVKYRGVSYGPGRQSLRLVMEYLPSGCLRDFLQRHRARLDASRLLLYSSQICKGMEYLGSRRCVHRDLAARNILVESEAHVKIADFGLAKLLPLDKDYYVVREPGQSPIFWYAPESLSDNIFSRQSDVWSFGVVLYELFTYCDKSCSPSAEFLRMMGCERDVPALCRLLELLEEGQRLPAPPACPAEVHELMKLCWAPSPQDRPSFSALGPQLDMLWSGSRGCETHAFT
pIC50: −log10 of the molar value.

Lab request: please report pIC50 under test system UniProt P52333 for `Cn1cc(-c2cc3nccnc3c(-c3cnn(C4(CC#N)CN(CC(F)(F)F)C4)c3)n2)cn1`
5.47

Lab request: please report pIC50 under test system UniProt P52333 for `N#CC[C@]1(n2ncc(-c3cc(-c4cc[nH]c(=O)c4)cc4ncccc34)n2)C[C@@H](C#N)C1`
< 5.00

Lab request: please report pIC50 under test system UniProt P52333 for `CN1C(=O)COc2ccc(-c3cc(-c4cnn([C@]5(CC#N)C[C@@H](C#N)C5)n4)c4cccnc4c3)nc21`
< 5.00

Lab request: please report pIC50 under test system UniProt P52333 for `N#CC[C@]1(n2cc(-c3cc(-c4cccc(C(N)=O)n4)cc4nccn34)cn2)C[C@H](C#N)C1`
< 5.00

---

Biological target: JAK1 (Homo sapiens (Human))
Test: JAK Caliper Enzyme Assay at 1 mM ATP, JAK1
Assay type: biochemical
Description: Compounds of the invention were evaluated by in vitro methods to determine their respective ability to inhibit the JAK kinases (TYK2, JAK1, JAK2, JAK3). The human JAK inhibitory activity was determined by using a microfluidic assay to monitor phosphorylation of a synthetic peptide by the recombinant human kinase domain of each of the four members of the JAK family, JAK1, JAK2, JAK3 and TYK2. […]
assayEndpoint: log10 IC50 (log10 of the value in nM)
Remember, log10 of IC50, in nM.

Consider the following illustrative entries.
compound: N#CC[C@H]1C[C@](CC#N)(n2ccc(-c3nc(-c4ccn[nH]4)cc4ncccc34)n2)C1 [Example 22]
assayedSystem: JAK1 (Homo sapiens (Human))
observedMeasurement: 2.92
--
compound: Cc1cc(-c2nc(-c3ccn[nH]3)cc3ncccc23)nn1C1(CC#N)CN(S(C)(=O)=O)C1 [Example 267]
assayedSystem: JAK1 (Homo sapiens (Human))
observedMeasurement: 3.47
--
compound: N#CC[C@]1(n2ncc(-c3cc(-c4cc(N)[nH]n4)cc4ncccc34)n2)C[C@@H](C#N)C1 [Example 307]
assayedSystem: JAK1 (Homo sapiens (Human))
observedMeasurement: 1.69
--
compound: CS(=O)(=O)N1CC(CC#N)(n2ccc(-c3nc(-c4cnn(CC5(O)COC5)c4)cc4ncccc34)n2)C1 [Example 133]
assayedSystem: JAK1 (Homo sapiens (Human))
observedMeasurement: 3.22
--
compound: Cn1cc(-c2cc3ncccc3c(-c3ccn(C4(CC#N)CN(S(C)(=O)=O)C4)n3)n2)c(N)n1 [Example 138]
assayedSystem: JAK1 (Homo sapiens (Human))
observedMeasurement: 2.58
--
compound: N#CC[C@]1(n2ccc(-c3nc(-c4cnnc(N)c4)cc4ncccc34)n2)C[C@H](C#N)C1 [Example 239]
assayedSystem: JAK1 (Homo sapiens (Human))
observedMeasurement: 3.57

# query: log10 IC50 of entry N#CCC1(n2ccc(-c3nc(-c4nc(CO)cs4)cc4ncccc34)n2)CC(C#N)C1 (stereo not drawn) [Example 156]
3.31

# query: log10 IC50 of entry Cn1ncc(-c2cc(-c3cnn([C@]4(CC#N)C[C@H](C#N)C4)n3)c3cccnc3c2)c1N [Example 331]
3.57

# query: log10 IC50 of entry CN1CCC(n2cc(-c3cc4ncccc4c(-c4ccn(C5(CC#N)CN(CC(F)(F)F)C5)n4)n3)cn2)CC1 [Example 117]
3.03

# query: log10 IC50 of entry N#CC[C@]1(n2ncc(-c3cc(-c4cn[nH]c4N)cc4ncccc34)n2)C[C@H](C#N)C1 [Example 319]
3.10

# query: log10 IC50 of entry CN(C)c1ccc(-c2cc3ncccc3c(-c3ccn(C4(CC#N)CN(S(C)(=O)=O)C4)n3)n2)cn1 [Example 203]
2.42
